Values were extracted from paper PMC10150366.

Biological target: human BCL6 BTB domain (Homo sapiens, UniProt P41182)
Experiment: BCL6 TR-FRET assay
Type: binding
Settings: Table S1; read-out: BCL6 TR-FRET pIC50 mean (converted)
Experimental: 1. Supplementary experimental: protein production, purification and crystallography 1.1 BCL6 constructs used for assays and crystallography […] cleavage site. For the TR-FRET assay, the Trx-6His-HRV3C-BCL6 protein construct was used without cleaving the tag, as a 6His was needed to bind to the anti-6His-Terbium antibody. […] The final protein was assessed for purity and molar mass by SDS-PAGE and high-resolution mass spectrometry, respectively. […]
Documented IC50 across a set of compounds
Answer with a number only, understood to be in nM.

Below, 2 compounds whose answers are already recorded.
Cn1c(=O)c2c(c3cc(Nc4nc(N5C6COCC5CC(O)C6)ncc4Cl)ccc31)N[C@@H](C1CC1)C(F)(F)CO2 (stereo partly shown) [compound 8] ... 1.31
COC1CN(c2ncc(Cl)c(Nc3ccc4c(c3)c3c(c(=O)n4C)OCC(F)(F)[C@H](C4CC4)N3)n2)C1 [compound 10] ... 3.93

IC50 in this record for Cn1c(=O)c2c(c3cc(Nc4nc(N5C6CCC5COC6)ncc4Cl)ccc31)N[C@@H](C1CC1)C(F)(F)CO2 [compound 4] : 1.51

IC50 in this record for Cn1c(=O)c2c(c3cc(Nc4nc(N5CC(F)C5)ncc4Cl)ccc31)N[C@@H](C1CC1)C(F)(F)CO2 [compound 13] : 6.2
